# measured on: LCK (Homo sapiens, UniProt P06239)
# Construct: LCK KD GST (225-509); GST
# Sequence (P06239 225-509): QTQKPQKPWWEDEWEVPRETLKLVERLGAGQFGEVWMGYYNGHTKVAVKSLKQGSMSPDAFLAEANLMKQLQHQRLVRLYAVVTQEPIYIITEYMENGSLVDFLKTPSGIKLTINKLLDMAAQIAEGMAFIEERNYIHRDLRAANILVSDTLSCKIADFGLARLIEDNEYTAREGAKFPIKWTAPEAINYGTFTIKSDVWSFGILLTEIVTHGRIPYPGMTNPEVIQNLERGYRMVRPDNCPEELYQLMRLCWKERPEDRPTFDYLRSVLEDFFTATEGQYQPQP
# protocol description: LCK-Homogeneous Time Resolved Fluorescent (HTRF) Kinase Assay
# Assay type: biochemical
# run parameters: read-out: activity in the LCK-HTRF Kinase Assay
reported property: IC50

Below, each entry is followed by its recorded IC50 result.
Recorded result, Cc1cccc(C)c1-n1c(=O)c2cnc(Nc3ccc(C(=O)NCCN(C)C)cc3)nc2n2c3ccccc3nc12 [No. 71] , IC50: < 1 µM

Recorded result, COc1cc(Nc2ncc3c(=O)n(-c4c(C)cccc4C)c4nc5ccccc5n4c3n2)ccc1OCC1CCN(C)CC1 [No. 12] , IC50: < 1 µM

Recorded result, Cc1cccc(C)c1-n1c(=O)c2cnc(Nc3ccc(OCCN(C)C)cc3)nc2n2c3ccccc3nc12 [No. 8] , IC50: < 1 µM

Recorded result, Cc1cccc(C)c1-n1c(=O)c2cnc(Nc3ccc(N4CCN(CCN(C)C)CC4)cc3)nc2n2c3ccccc3nc12 [No. 45] , IC50: < 1 µM

Recorded result, COc1cc(Nc2ncc3c(=O)n(-c4c(C)cccc4C)c4nc5ccccc5n4c3n2)cc(OC)c1OCCN1CCCCC1 [No. 25] , IC50: < 1 µM

# evaluate next
Recorded result, Cc1cccc(C)c1-n1c(=O)c2cnc(Nc3ccc(N4CCN(CCCN(C)C)CC4)cc3)nc2n2c3ccccc3nc12 [No. 49] , IC50: < 1 µM
